- TARGET: UniProt:Q12809
- Sequence (Q12809 whole entry): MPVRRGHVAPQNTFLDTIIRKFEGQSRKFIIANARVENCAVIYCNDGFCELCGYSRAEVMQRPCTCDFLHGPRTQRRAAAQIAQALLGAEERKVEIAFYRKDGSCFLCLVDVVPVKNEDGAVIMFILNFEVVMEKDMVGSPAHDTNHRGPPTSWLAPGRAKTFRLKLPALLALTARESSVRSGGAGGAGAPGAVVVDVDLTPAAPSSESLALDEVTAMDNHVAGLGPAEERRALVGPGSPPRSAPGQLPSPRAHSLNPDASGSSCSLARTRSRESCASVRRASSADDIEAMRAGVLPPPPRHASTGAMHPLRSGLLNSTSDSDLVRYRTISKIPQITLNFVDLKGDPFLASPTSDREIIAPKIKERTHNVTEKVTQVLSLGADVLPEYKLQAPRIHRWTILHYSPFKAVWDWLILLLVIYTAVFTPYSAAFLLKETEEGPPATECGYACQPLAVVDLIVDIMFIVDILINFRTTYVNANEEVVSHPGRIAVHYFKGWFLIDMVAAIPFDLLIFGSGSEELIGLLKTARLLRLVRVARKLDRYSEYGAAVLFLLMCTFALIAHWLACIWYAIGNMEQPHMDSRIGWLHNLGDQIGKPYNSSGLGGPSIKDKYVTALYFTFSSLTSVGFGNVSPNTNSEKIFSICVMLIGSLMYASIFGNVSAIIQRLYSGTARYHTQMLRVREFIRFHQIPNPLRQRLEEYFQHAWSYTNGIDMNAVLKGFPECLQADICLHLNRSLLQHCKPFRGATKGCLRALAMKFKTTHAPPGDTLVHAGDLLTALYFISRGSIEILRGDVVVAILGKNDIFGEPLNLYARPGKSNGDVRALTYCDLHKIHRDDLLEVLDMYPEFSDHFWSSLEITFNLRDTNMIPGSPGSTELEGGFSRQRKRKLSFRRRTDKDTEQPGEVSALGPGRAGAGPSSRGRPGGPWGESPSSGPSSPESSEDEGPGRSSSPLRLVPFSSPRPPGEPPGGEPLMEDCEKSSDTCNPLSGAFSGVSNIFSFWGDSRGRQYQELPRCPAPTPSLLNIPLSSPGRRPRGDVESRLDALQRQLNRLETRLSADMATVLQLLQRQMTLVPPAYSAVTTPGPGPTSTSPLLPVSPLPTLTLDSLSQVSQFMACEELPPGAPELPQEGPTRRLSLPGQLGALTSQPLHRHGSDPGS
Binary call on IC50 with cut-off 6 µM: strictly below means Criterion met, and equality or higher means Criterion not met.

- COMPOUND: "COCC(=O)N1CCO[C@@H](c2nc(-c3ccc(C(=O)Nc4cc(C(F)(F)F)ccn4)cc3F)c3c(N)nccn23)C1"
  TARGET: "UniProt:Q12809"
  ANSWER_LABEL: "Criterion not met"
- COMPOUND: "COCCC(=O)N1CCO[C@@H](c2nc(-c3ccc(C(=O)Nc4cc(C(F)(F)F)ccn4)cc3)c3c(N)nccn23)C1"
  TARGET: "UniProt:Q12809"
  ANSWER_LABEL: "Criterion met"
- COMPOUND: "CC1(C(=O)N2CC[C@@H](c3nc(-c4ccc(C(=O)Nc5cc(C(F)(F)F)ccn5)cc4)c4c(N)nccn34)C2)COC1"
  TARGET: "UniProt:Q12809"
  ANSWER_LABEL: "Criterion met"
- COMPOUND: "CC(C)C(=O)N1CCO[C@@H](c2nc(-c3ccc(C(=O)Nc4cc(C(F)(F)F)ccn4)cc3F)c3c(N)nccn23)C1"
  TARGET: "UniProt:Q12809"
  ANSWER_LABEL: "Criterion not met"
- COMPOUND: "CC1(C(=O)N2CCO[C@@H](c3nc(-c4ccc(C(=O)Nc5cc(C(F)(F)F)ccn5)cc4)c4c(N)nccn34)C2)COC1"
  TARGET: "UniProt:Q12809"
  ANSWER_LABEL: "Criterion not met"
- COMPOUND: "COCC(=O)N1CCC[C@@H](c2nc(-c3ccc(C(=O)Nc4cc(C(F)(F)F)ccn4)cc3F)c3c(N)nccn23)C1"
  TARGET: "UniProt:Q12809"
  ANSWER_LABEL: "Criterion met"
- COMPOUND: "COCCC(=O)N1CCSC(c2nc(-c3ccc(C(=O)Nc4cc(C(F)(F)F)ccn4)cc3)c3c(N)nccn23)C1 (configuration not stated)"
  TARGET: "UniProt:Q12809"
  ANSWER_LABEL: "Criterion met"

---

- TARGET: Tyrosine-protein kinase BTK (Homo sapiens, UniProt Q06187)
- Sequence (Q06187 whole entry): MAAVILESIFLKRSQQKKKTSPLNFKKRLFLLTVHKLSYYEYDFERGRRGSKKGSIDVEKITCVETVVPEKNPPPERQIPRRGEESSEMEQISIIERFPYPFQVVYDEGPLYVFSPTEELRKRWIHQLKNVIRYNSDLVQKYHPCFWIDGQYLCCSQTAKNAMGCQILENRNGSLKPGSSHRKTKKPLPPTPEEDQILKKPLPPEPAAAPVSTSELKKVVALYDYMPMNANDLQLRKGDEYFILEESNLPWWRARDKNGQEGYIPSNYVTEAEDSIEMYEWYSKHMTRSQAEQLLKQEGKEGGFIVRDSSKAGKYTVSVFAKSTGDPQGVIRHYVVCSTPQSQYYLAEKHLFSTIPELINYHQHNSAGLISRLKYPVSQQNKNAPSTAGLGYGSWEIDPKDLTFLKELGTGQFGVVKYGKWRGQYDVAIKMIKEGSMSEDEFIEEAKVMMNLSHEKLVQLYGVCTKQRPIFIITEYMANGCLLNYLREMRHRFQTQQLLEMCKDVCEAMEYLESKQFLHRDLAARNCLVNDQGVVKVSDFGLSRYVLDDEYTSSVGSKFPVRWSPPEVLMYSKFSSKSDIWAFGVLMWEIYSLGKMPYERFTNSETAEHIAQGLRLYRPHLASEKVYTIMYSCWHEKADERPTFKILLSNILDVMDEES
- ASSAY_COMMENT: Inhibition of BTK in human PBMC assessed as reduction in anti-IgM-induced MIP1beta
pIC50: −log10 of the molar value.
Readings of pIC50 for the listed compounds
PROPERTY: pIC50

- COMPOUND_STRUCTURE: "Nc1nccn2c([C@@H]3CCCN(C4CCOCC4)C3)nc(-c3ccc(C(=O)Nc4cc(C(F)(F)F)ccn4)cc3F)c12"
  PROPERTY: "pIC50"
  VALUE_MEASURED: 7.19
- COMPOUND_STRUCTURE: "Nc1nccn2c([C@H]3CN(C4CCOCC4)CCO3)nc(-c3ccc(C(=O)Nc4cc(C(F)(F)F)ccn4)cc3F)c12"
  PROPERTY: "pIC50"
  VALUE_MEASURED: 7.89
- COMPOUND_STRUCTURE: "COCC(=O)N1CCO[C@@H](c2nc(-c3ccc(C(=O)Nc4cc(C(F)(F)F)ccn4)cc3F)c3c(N)nccn23)C1"
  PROPERTY: "pIC50"
  VALUE_MEASURED: 7.85
- COMPOUND_STRUCTURE: "CC(C)C(=O)N1CCC[C@@H](c2nc(-c3ccc(C(=O)Nc4cc(C(F)(F)F)ccn4)cc3F)c3c(N)nccn23)C1"
  PROPERTY: "pIC50"
  VALUE_MEASURED: 8.30
- COMPOUND_STRUCTURE: "COCC(=O)N1CCC[C@@H](c2nc(-c3ccc(C(=O)Nc4cc(C(F)(F)F)ccn4)cc3F)c3c(N)nccn23)C1"
  PROPERTY: "pIC50"
  VALUE_MEASURED: 7.89
- COMPOUND_STRUCTURE: "CC(C)C(=O)N1CCO[C@@H](c2nc(-c3ccc(C(=O)Nc4cc(C(F)(F)F)ccn4)cc3F)c3c(N)nccn23)C1"
  PROPERTY: "pIC50"
  VALUE_MEASURED: 7.59
